- study-system: human PTH1 receptor (Homo sapiens, UniProt Q03431)
- Sequence (Q03431 27-593): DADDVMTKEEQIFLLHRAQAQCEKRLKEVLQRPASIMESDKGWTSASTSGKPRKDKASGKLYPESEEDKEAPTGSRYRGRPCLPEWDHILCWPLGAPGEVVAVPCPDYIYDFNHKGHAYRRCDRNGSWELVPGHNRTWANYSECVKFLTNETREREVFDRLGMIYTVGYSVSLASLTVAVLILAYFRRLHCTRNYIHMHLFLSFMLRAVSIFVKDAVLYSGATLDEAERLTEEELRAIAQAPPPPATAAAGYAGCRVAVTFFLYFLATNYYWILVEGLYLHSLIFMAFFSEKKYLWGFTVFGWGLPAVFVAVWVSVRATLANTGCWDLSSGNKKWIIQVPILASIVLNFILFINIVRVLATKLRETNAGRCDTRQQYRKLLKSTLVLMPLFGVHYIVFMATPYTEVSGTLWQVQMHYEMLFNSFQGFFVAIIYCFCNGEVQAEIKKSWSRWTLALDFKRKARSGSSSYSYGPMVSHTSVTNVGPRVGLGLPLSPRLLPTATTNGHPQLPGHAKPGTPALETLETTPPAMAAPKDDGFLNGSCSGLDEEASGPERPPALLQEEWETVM
- assay-name: In vitro cAMP signal activity in HKRK-B7 cells (LLC-PK1 cells overexpressing the human PTH1 receptor)
- Type: cell-based
- protocol-conditions: HKRK-B7 cells; compound at 1×10^−3 M; cAMP produced as percentage of that produced by hPTH(1-34) at 100 nM
observed-property: cAMP production activity (%)
Give bare numbers, in %.

Reference set, count: 2
>>> measured_number("Cc1cc(N2C(C)(C)C(=O)NS2(=O)=O)cc(C)c1CCS(=O)(=O)N1CCC2(CC1)N=C(C1CCC(C)CC1)NC2=O (stereo not drawn)")
14
>>> measured_number("Cc1cc(C2=NC3(CCN(S(=O)(=O)CCc4ccc(C(=O)N(C)C)cc4C)CC3)C(=O)N2)ccc1F")
61

Let us examine a further case.
Lookup: I'd like to know its cAMP production activity (%). The compound in question is `Cc1cc(OC[C@H](O)CO)cc(C)c1/C=C/S(=O)(=O)N1CCC2(CC1)N=C(c1cccc(OCCCC(F)(F)C(F)(F)F)c1)NC2=O`
Found: 5.4

* * *

- study-system: UniProtKB Q03431
- assay-name: In vitro cAMP signal activity in HKRK-B7 cells (LLC-PK1 cells overexpressing the human PTH1 receptor)
- Type: cell-based
- protocol-conditions: HKRK-B7 cells; compound at 1×10^−3 M; cAMP produced as percentage of that produced by hPTH(1-34) at 100 nM
I'd be grateful if you could share measured cAMP production activity (%) for these entries.
Value and unit, in that order.

>>> result("CC(=O)Nc1ccc(/C=C/S(=O)(=O)N2CCC3(CC2)N=C(c2cccc(C(F)(F)F)c2)NC3=O)c(C)c1 [Compound 215]")
"81%"
>>> result("CC(=O)N(C)c1cccc(CCS(=O)(=O)N2CCC3(CC2)N=C(c2cccc(OC(F)(F)F)c2)NC3=O)c1C [Compound 264]")
"69%"
>>> result("Cc1cc(OCC2(C)COC2)ccc1/C=C/S(=O)(=O)N1CCC2(CC1)N=C(C1CCCCC1)NC2=O [Compound 739]")
"47%"
>>> result("Cc1cc(N(C)C(N)=O)cc(C)c1/C=C/S(=O)(=O)N1CCC2(CC1)N=C(CCCCCCCCCCCNC(=O)OC(C)(C)C)NC2=O [Compound 1308]")
"102%"
>>> result("Cc1cc(N2C(=O)CNC2=O)cc(C)c1/C=C/S(=O)(=O)N1CCC2(CC1)N=C(C1CCC(C)CC1)NC2=O (stereo not drawn) [Compound 575]")
"57%"

Now for another entry.
Lookup: cAMP production activity (%) for CNCc1cc(C)c(/C=C/S(=O)(=O)N2CCC3(CC2)N=C(C2CCC(CCC(F)(F)F)CC2)NC3=O)c(C)c1 (stereo not drawn) [Compound 1292] ?
Found: 14%

* * *

- study-system: UniProt:Q03431
- assay-name: In vitro cAMP signal activity in HKRK-B7 cells (LLC-PK1 cells overexpressing the human PTH1 receptor)
- Type: cell-based
- protocol-conditions: HKRK-B7 cells; compound at 1×10^−3 M; cAMP produced as percentage of that produced by hPTH(1-34) at 100 nM
I'd appreciate it if you could supply cAMP production activity (%) values for the items below.
Answers are plain numbers, in %.

>>> measured_number("Cc1cc(N(C)C(N)=O)cc(C)c1CCS(=O)(=O)N1CCC2(CC1)N=C(CCCCCCCCC1(C)COC1)NC2=O")
111

I need cAMP production activity (%) for every entry listed below, if you could help.
1. CCCCCCCCCC1=NC2(CCN(S(=O)(=O)CCc3c(C)cc(C(=O)O)cc3C)CC2)C(=O)N1
2. CCCCC1CCN(C2=NC3(CCN(S(=O)(=O)CCc4ccc(C(=O)N(C)C)cc4C)CC3)C(=O)N2)CC1
3. Cc1cc(C(=O)N2CCC(O)CC2)cc(C)c1/C=C/[S@TB4](=O)(=O)N1CCC2(CC1)N=C(c1ccc(F)c(OC(F)(F)F)c1)NC2=O
4. Cc1cc(C(=O)N(C)C)ccc1CCS(=O)(=O)N1CCC2(CC1)N=C(COc1ccc(Cl)cc1)NC2=O

Found:
1. 64
2. 66
3. 87
4. 64

Lookup: Query cAMP production activity (%) on UniProt:Q03431 for `Cc1cc(C(=O)N(C)C)ccc1CCS(=O)(=O)N1CCC2(CC1)N=C(c1cccc(C(F)(F)F)c1F)NC2=O`
Found: 94

* * *

- study-system: human PTH1 receptor (Homo sapiens, UniProt Q03431)
- assay-name: In vitro cAMP signal activity in HKRK-B7 cells (LLC-PK1 cells overexpressing the human PTH1 receptor)
- Assay type: cell-based
- protocol-conditions: HKRK-B7 cells; compound at 1×10^−3 M; cAMP produced as percentage of that produced by hPTH(1-34) at 100 nM
Mark each entry Satisfied if its cAMP production activity (%) sits below 60%, and Not satisfied for all others.

>>> qualitative_label("Cc1cc(C(=O)N(C)C)ccc1CCS(=O)(=O)N1CCC2(CC1)N=C(c1cccc(C(F)(F)F)c1C)NC2=O")
"Not satisfied"
>>> qualitative_label("CCCCCc1ccc(C2=NC3(CCN(S(=O)(=O)/C=C/c4c(C)cc(N(C)C(N)=O)cc4C)CC3)C(=O)N2)cc1")
"Not satisfied"
>>> qualitative_label("CC(=O)Nc1ccc(CCS(=O)(=O)N2CCC3(CC2)N=C(C2CCC(c4ccc(Cl)cc4)CC2)NC3=O)c(C)c1 (centres unmarked)")
"Not satisfied"

Lookup: Given `Cc1cc(C(=O)N(C)C)ccc1CCS(=O)(=O)N1CCC2(CC1)N=C(c1cc(F)cc(C(F)(F)F)c1)NC2=O` , is recorded cAMP production activity (%) strictly lower than 60%?
Found: Not satisfied

Lookup: Quick check: cAMP production activity (%) of `Cc1cc(N(C)C(=O)CN(C)C)cc(C)c1/C=C/S(=O)(=O)N1CCC2(CC1)N=C(c1cccc(OC(F)(F)F)c1)NC2=O` under 60%?
Found: Satisfied

Lookup: Consider `Cc1cc(C(=O)N(C)C)ccc1CCS(=O)(=O)N1CCC2(CC1)N=C(Cc1ccccc1)NC2=O` . Does its cAMP production activity (%) lie strictly below 60%?
Found: Satisfied

* * *

- study-system: UniProt:Q03431
- assay-name: In vitro cAMP signal activity in HKRK-B7 cells (LLC-PK1 cells overexpressing the human PTH1 receptor)
- Type: cell-based
- protocol-conditions: HKRK-B7 cells; compound at 1×10^−3 M; cAMP produced as percentage of that produced by hPTH(1-34) at 100 nM
Criterion: cAMP production activity (%) meeting or surpassing 70%. Met: Met. Not met: Not met.

Answered examples (4):
>>> qualitative_label("CC(=O)Nc1ccc(CCS(=O)(=O)N2CCC3(CC2)N=C(c2ccc(C#N)cc2)NC3=O)c(C)c1 [Compound 906]")
"Met"
>>> qualitative_label("Cc1cc(OCCOC[C@H](O)CO)cc(C)c1/C=C/S(=O)(=O)N1CCC2(CC1)N=C(C1CCC(CCC(F)(F)F)CC1)NC2=O (stereo partly shown) [Compound 698]")
"Not met"
>>> qualitative_label("Cc1cc(N2C(=O)CN(C)C2=O)ccc1CCS(=O)(=O)N1CCC2(CC1)N=C(C1CCC(C)CC1)NC2=O (stereo not shown) [Compound 862]")
"Not met"
>>> qualitative_label("CN(C)C(=O)n1ccc2cccc(CCS(=O)(=O)N3CCC4(CC3)N=C(C3CCCCC3)NC4=O)c21 [Compound 647]")
"Met"

Lookup: Confirm if cAMP production activity (%) reported for the molecule Cc1cc(CO)cc(C)c1/C=C/S(=O)(=O)N1CCC2(CC1)N=C(C1CCC(CCC(F)(F)F)CC1)NC2=O (stereo not shown) [Compound 553] is 70% or above.
Found: Met

Lookup: Reported cAMP production activity (%) reaches at least 70% for Cc1cc(N(C)C(N)=O)cc(C)c1CCS(=O)(=O)N1CCC2(CC1)N=C(C1CCC(CC(F)(F)C(F)(F)F)CC1)NC2=O (stereo not shown) [Compound 1042] ?
Found: Met

Lookup: Entry CCCCCCCCCC1=NC2(CCN(S(=O)(=O)CCc3c(C)cc(C(=O)N4CCN(C)CC4)cc3C)CC2)C(=O)N1 [Compound 986] : is its cAMP production activity (%) no less than 70%?
Found: Met

Lookup: Could you tell me if the measured cAMP production activity (%) of Cc1cc(C(=O)N2CCC(C)(O)CC2)cc(C)c1/C=C/[S@TB4](=O)(=O)N1CCC2(CC1)N=C(c1ccc(OC(F)(F)F)c(F)c1)NC2=O [Compound 1094] reaches 70% or more?
Found: Met

Lookup: Determine whether this molecule has cAMP production activity (%) no lower than 70%: O=C1NC(C2CCCCC2)=NC12CCN(S(=O)(=O)/C=C/c1cccc3c1ccn3Cc1nccs1)CC2 [Compound 483]
Found: Not met
